- system-tested: T1, human C1s (human)
- T1 chain: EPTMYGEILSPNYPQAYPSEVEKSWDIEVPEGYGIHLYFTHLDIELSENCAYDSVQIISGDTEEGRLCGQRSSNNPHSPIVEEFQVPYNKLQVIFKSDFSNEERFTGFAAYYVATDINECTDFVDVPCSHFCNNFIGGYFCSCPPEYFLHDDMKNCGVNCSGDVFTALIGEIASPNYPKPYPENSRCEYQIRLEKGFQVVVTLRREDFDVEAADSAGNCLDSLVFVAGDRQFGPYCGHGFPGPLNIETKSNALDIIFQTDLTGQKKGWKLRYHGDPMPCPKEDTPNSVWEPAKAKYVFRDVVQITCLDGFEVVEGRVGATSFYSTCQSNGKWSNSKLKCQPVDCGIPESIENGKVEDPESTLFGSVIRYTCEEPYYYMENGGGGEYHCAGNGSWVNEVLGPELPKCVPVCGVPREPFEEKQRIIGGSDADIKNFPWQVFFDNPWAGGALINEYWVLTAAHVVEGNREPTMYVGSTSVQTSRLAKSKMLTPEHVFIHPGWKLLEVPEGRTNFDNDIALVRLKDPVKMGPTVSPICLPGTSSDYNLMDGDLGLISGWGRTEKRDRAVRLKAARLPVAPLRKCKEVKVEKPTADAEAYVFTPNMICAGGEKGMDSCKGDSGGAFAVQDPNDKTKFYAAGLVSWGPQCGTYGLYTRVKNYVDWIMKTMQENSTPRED
- assay: SPR pH 7.4 37C
attribute-measured: Kd (nM)

{"binder": "IPN009VH2/IPN93L0021 (antibody, V domains shown) VH: EVMLVESGGGLVKPGGSLRLSCAASGFTFSNYAMSWVRQAPGKGLEWVATISSGGSHTYYLDSVKGRFTISRDNSKDTLYLQMNSLRAEDTALYYCARLFTGYAMDYWGQGTLVTVSS VL: QIVLTQSPATLSLSPGERATLSCTASSSVSSSYLHWYQQKPGKAPKLWIYSTSNLASGVPSRFSGSGSGTDYTLTISSLQPEDFATYYCHQHYRLPPITFGQGTKLEIK", "attribute-measured": "Kd", "numeric-readout": 2.68}
{"binder": "IPN92H0033/IPN009VK3 (antibody, V domains shown) VH: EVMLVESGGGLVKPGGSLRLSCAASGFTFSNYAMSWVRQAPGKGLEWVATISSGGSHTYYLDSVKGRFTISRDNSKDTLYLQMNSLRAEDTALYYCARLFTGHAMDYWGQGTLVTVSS VL: QIVLTQSPATLSLSPGERATLSCTASSSVSSSYLHWYQQKPGKAPKLWIYSTSNLASGVPSRFSGSGSGTDYTLTISSLQPEDFATYYCHQYYRLPPITFGQGTKLEIK", "attribute-measured": "Kd", "numeric-readout": 0.79}
{"binder": "IPN009VH2/IPN93L0024 (antibody, V domains shown) VH: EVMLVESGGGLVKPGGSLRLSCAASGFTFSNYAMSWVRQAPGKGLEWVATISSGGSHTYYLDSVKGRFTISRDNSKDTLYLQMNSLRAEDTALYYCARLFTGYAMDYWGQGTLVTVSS VL: QIVLTQSPATLSLSPGERATLSCTASSSVSSSYLHWYQQKPGKAPKLWIYSTSNLASGVPSRFSGSGSGTDYTLTISSLQPEDFATYYCHQYYRLHPITFGQGTKLEIK", "attribute-measured": "Kd", "numeric-readout": 2.46}
{"binder": "IPN009VH2/IPN009VK3 (antibody, V domains shown) VH: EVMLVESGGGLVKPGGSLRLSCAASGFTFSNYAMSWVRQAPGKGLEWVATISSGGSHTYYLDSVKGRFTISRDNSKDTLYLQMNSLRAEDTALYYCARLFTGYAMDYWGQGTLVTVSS VL: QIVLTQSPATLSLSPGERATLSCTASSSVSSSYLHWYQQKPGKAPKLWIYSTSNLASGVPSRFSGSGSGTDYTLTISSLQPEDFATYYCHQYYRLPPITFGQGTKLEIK", "attribute-measured": "Kd", "numeric-readout": 0.824}
